Items are presented alongside their recorded Population Hoechst High Intensity Objects (%).
Tested on: HEK-293T
Experiment: Multiplex assay against HEK293T
Format: toxicity, cell-based
Settings: human, 48 h, 10 µM, compound concentration 10 uM, replicate 1
# output: bare number, implied unit %

Below, each entry is followed by its recorded Population Hoechst High Intensity Objects (%) result.
Cc1noc(-c2ccc(-c3ccc(CC(=O)O)cc3)cc2)c1NC(=O)O[C@H](C)c1ccccc1Cl | 6
CCCOc1ccc2[nH]cc(C3=CCNCC3)c2n1.Cl | 6

In: I'd like to know its Population Hoechst High Intensity Objects (%). The compound in question is Cl.N=C(N)NC(=O)Cc1c(Cl)cccc1Cl [GUANFACINE HYDROCHLORIDE]
Out: 6

* * *

Tested on: HEK-293T
Test: Multiplex assay against HEK293T
Type: toxicity, cell-based
Settings: human, 48 h, 1 µM, compound concentration 1 uM, replicate 2
Reported Total Cell Count maps to class as: low group = under 600, middle group = from 600 up to 700, high group = 700 and over

Some solved entries appear below for comparison.
O=C(NCCN1CCC(n2c(=O)[nH]c3cc(Cl)ccc32)CC1)c1ccc(F)cc1 [HALOPEMIDE] | middle group
CN1CCN(c2cc(-c3ccccc3)nc(N)n2)CC1 | high group
O=C(CCCc1ccccc1)Nc1nc2ccccc2c(=O)s1 | low group
Cc1sc2c(c1C)C(c1ccc(Cl)cc1)=N[C@@H](CC(=O)NCCCCCCCCNC(=O)COc1cccc3c1C(=O)N(C1CCC(=O)NC1=O)C3=O)c1nnc(C)n1-2 (stereo not given in full) | low group

In: Form: Item = CCCCCC(O)/C=C/[C@H]1C(=O)CC(O)C1C/C=C\CCCC(=O)O (stereo not given in full) ; Class = ?
Out: high group

In: Follow-up entry: C[C@H](N)COC(=O)[C@@H](CCCCN)NC(=O)Cc1c(-c2ccc3ccccc3c2)[nH]c2c1ccc1ccccc12
Out: low group

* * *

Items are presented alongside their recorded Population Mitochondria Different-Phenotype (%).
Tested on: HEK-293T
Experiment: Multiplex assay against HEK293T
Assay type: toxicity, cell-based
Settings: human, 12 h, 1 µM, compound concentration 1 uM, replicate 1
# output: bare number, implied unit %

In: I'd like to know its Population Mitochondria Different-Phenotype (%). The molecule in question is CN1CCN(c2cc(-c3ccccc3)nc(N)n2)CC1
Out: 35

In: Follow-up entry: O=C(NCCN1CCC(n2c(=O)[nH]c3cc(Cl)ccc32)CC1)c1ccc(F)cc1 [HALOPEMIDE]
Out: 54

In: Follow-up entry: CCCOc1ccc2[nH]cc(C3=CCNCC3)c2n1.Cl
Out: 41

In: Follow-up entry: CC(=O)Nc1cccc2c1c(Sc1ccc(Cl)cc1)c(C)n2CC(=O)O
Out: 46

* * *

Items are presented alongside their recorded Population Apoptotic (%).
Tested on: U2OS
Experiment: Multiplex assay against U2OS
Type: toxicity, cell-based
Details: human, 24 h, 1 µM, compound concentration 1 uM, replicate 2
# output: bare number, implied unit %

Below, each entry is followed by its recorded Population Apoptotic (%) result.
Cc1cnc(-c2cc(N3CCN(C(=O)CCS(C)(=O)=O)CC3)ncc2Cl)c(C)c1 | 90
CCc1cc2cc(NS(=O)(=O)c3ccc(C#N)cc3)ccc2n(CC)c1=O | 88
CCCOc1ccc2[nH]cc(C3=CCNCC3)c2n1.Cl | 90
COc1cccc2c1c(NS(=O)(=O)c1ccc(Cl)s1)nn2Cc1cccc(CNC(=O)C(C)(C)O)c1 | 90
O=C1[C@H](Cc2ccc(O)cc2)N2C(=O)CCN(C(=O)NCc3ccccc3)[C@H]2CN1Cc1cccc2ccccc12 | 88

In: I'd like to know its Population Apoptotic (%). The molecule in question is CCCCCC(O)/C=C/[C@H]1C(=O)CC(O)C1C/C=C\CCCC(=O)O (some centres not stated)
Out: 90

In: Follow-up entry: N#Cc1c(Oc2cccc(OS(=O)(=O)CCCC(F)(F)F)c2)cccc1C(F)(F)F
Out: 90

* * *

Tested on: HEK-293T
Test: Multiplex assay against HEK293T
Assay type: toxicity, cell-based
Conditions: human, 12 h, 10 µM, compound concentration 10 uM, replicate 1
Items are presented alongside their recorded Population Mitochondria Different-Phenotype (%).
# output: bare number, implied unit %

Below, each entry is followed by its recorded Population Mitochondria Different-Phenotype (%) result.
CCCCC(=O)N(Cc1ccc(-c2ccccc2-c2nnn[nH]2)cc1)[C@H](C(=O)O)C(C)C | 30
Cl.N=C(N)NC(=O)Cc1c(Cl)cccc1Cl [GUANFACINE HYDROCHLORIDE] | 61
CCCCCC(O)/C=C/[C@H]1C(=O)CC(O)C1C/C=C\CCCC(=O)O (some centres undefined) | 48

Now for the compound whose Population Mitochondria Different-Phenotype (%) we want.
In: I'd like to know its Population Mitochondria Different-Phenotype (%). The compound in question is Cl.NCCc1ccc(O)c(O)c1 [DOPAMINE HYDROCHLORIDE]
Out: 57

* * *

Test system: Fibroblast
Assay: Multiplex assay against human fibroblast
Assay type: toxicity, cell-based
Conditions: 12 h, 1 µM, compound concentration 1 uM, replicate 1
Items are presented alongside their recorded Population Mitochondria Different-Phenotype (%).
# output: bare number, implied unit %

Below, each entry is followed by its recorded Population Mitochondria Different-Phenotype (%) result.
O=C(CCCc1ccccc1)Nc1nc2ccccc2c(=O)s1 | 4
CC[C@@H](C)Nc1nc(C)nc2c(-c3ccc(OC)nc3C)c(C)nn12 | 4
CC(C)(C)c1cc(NC(=O)Nc2ccc(-c3cn4c(n3)sc3cc(OCCN5CCOCC5)ccc34)cc2)no1 | 7
C[C@H](N)COC(=O)[C@@H](CCCCN)NC(=O)Cc1c(-c2ccc3ccccc3c2)[nH]c2c1ccc1ccccc12 | 7
CCCOc1ccc2[nH]cc(C3=CCNCC3)c2n1.Cl | 6

Now for the molecule whose Population Mitochondria Different-Phenotype (%) we want.
In: I'd like to know its Population Mitochondria Different-Phenotype (%). The molecule in question is Cc1cccc(NC(=O)CN2CCC(c3ccccn3)CC2)c1.Cl.Cl
Out: 6

* * *

Test system: HEK-293T
Assay: Multiplex assay against HEK293T
Type: toxicity, cell-based
Conditions: human, 12 h, 10 µM, compound concentration 10 uM, replicate 1
observed-property: Total Cell Count
# print the numeric value only

In: I'd like to know its Total Cell Count. The molecule in question is Cl.N=C(N)NC(=O)Cc1c(Cl)cccc1Cl [GUANFACINE HYDROCHLORIDE]
Out: 296

In: Follow-up entry: CC(C)(C)c1cc(NC(=O)Nc2ccc(-c3cn4c(n3)sc3cc(OCCN5CCOCC5)ccc34)cc2)no1 [QUIZARTINIB]
Out: 324

In: Follow-up entry: CC(/C=C1\SC(=S)N(CCCC(=O)Nc2ccc(C(=O)O)c(O)c2)C1=O)=C\c1ccccc1
Out: 313

* * *

Items are presented alongside their recorded Population Tubulin-Different-Phenotype (%).
Tested on: U2OS
Assay: Multiplex assay against U2OS
Format: toxicity, cell-based
Settings: human, 48 h, 10 µM, compound concentration 10 uM, replicate 1
# output: bare number, implied unit %

Below, each entry is followed by its recorded Population Tubulin-Different-Phenotype (%) result.
CC(C)(C)c1cc(NC(=O)Nc2ccc(-c3cn4c(n3)sc3cc(OCCN5CCOCC5)ccc34)cc2)no1 | 33
CC(=O)Nc1cccc2c1c(Sc1ccc(Cl)cc1)c(C)n2CC(=O)O | 4
CCCOc1ccc2[nH]cc(C3=CCNCC3)c2n1.Cl | 3
CN1CCN(c2cc(-c3ccccc3)nc(N)n2)CC1 | 6
CN[C@@H](C)C(=O)N[C@H](C(=O)N1CCC[C@H]1C(=O)Nc1snnc1-c1ccccc1)C1CCCCC1 | 43

In: I'd like to know its Population Tubulin-Different-Phenotype (%). The compound in question is Cc1cnc(-c2cc(N3CCN(C(=O)CCS(C)(=O)=O)CC3)ncc2Cl)c(C)c1
Out: 2

In: Follow-up entry: CCCCCC(O)/C=C/[C@H]1C(=O)CC(O)C1C/C=C\CCCC(=O)O (some centres not stated)
Out: 4

In: Follow-up entry: Br.CS(=O)(=O)Nc1c(O)ccc2c1CCCC2C1=NCCN1 (configuration not stated)
Out: 2

In: Follow-up entry: N#Cc1cc(F)cc(-c2nc(-c3ccc(F)cn3)no2)c1
Out: 3

In: Follow-up entry: Cc1noc(-c2ccc(-c3ccc(CC(=O)O)cc3)cc2)c1NC(=O)O[C@H](C)c1ccccc1Cl
Out: 5

In: Follow-up entry: CCCCC(=O)N(Cc1ccc(-c2ccccc2-c2nnn[nH]2)cc1)[C@H](C(=O)O)C(C)C
Out: 2

In: Follow-up entry: Cc1c(CC(=O)O)c2cccnc2n1Cc1ccc(S(C)(=O)=O)cc1C(F)(F)F
Out: 3

In: Follow-up entry: CC[C@@H](C)Nc1nc(C)nc2c(-c3ccc(OC)nc3C)c(C)nn12
Out: 1

Origin of measurements: ChEMBL document CHEMBL5058577
